Ref: patent US9085555B2

Molecular target: Factor D (Homo sapiens (Human))
Assay: biochemical
Format: biochemical
Details: read-out: IC50
# label = t if IC50 < 200 nM else f

[Q] Does the reported IC50 of NC(=O)n1cc(NC(=O)N2CC(F)(F)C[C@H]2C(=O)NCc2cccc(Cl)c2F)c2ccccc21 stay below 200 nM?
[A] t

[Q] What do we get for CN[C@H]1C[C@@H](C(=O)NCc2cccc(Cl)c2F)N(C(=O)Nc2cn(C(N)=O)c3ccccc23)C1 ?
[A] f

[Q] Field entry: COc1cc2c(C(N)=O)nn(CC(=O)N3[C@@H]4C[C@@H]4C[C@H]3C(=O)Nc3cccc(OC(F)(F)F)c3F)c2cn1
[A] f

[Q] Now consider CC(=O)c1cn(CC(=O)N2C[C@H](F)C[C@H]2C(=O)NCc2cccc(Cl)c2F)c2ccc(OCc3ccccn3)cc12 .
[A] f

[Q] Same thing, different compound: NC(=O)n1cc(NC(=O)N2[C@@H]3C[C@@H]3C[C@H]2C(=O)NCc2ccccc2F)c2cc(OCC(=O)O)ccc21
[A] t

[Q] Lookup NC(=O)n1cc(NC(=O)N2CCS[C@H]2C(=O)Nc2cccc(OC(F)(F)F)c2)c2ccccc21
[A] t

###

Target: Factor D (Homo sapiens (Human), UniProt P00746)
Sequence (P00746 26-253): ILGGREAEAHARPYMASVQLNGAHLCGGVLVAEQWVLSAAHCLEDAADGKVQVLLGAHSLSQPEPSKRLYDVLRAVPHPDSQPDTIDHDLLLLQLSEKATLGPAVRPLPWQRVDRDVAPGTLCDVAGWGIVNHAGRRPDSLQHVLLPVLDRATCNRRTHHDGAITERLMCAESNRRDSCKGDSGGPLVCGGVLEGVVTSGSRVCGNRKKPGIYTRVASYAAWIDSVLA
Test: biochemical
Type: biochemical
Conditions: read-out: IC50
pIC50: −log10 of the molar value.
Classification by pIC50 follows these ranges: low band = under 6, middle band = from 6 up to 8, high band = 8 and over

[Q] Class? Entry: C[C@@]1(F)C[C@@H](C(=O)N[C@H](CO)c2cccc(Cl)c2F)N(C(=O)Nc2cn(C(N)=O)c3ccccc23)C1
[A] middle band

[Q] What do you have for CC(=O)c1cn(CC(=O)N2[C@@H]3C[C@@H]3C[C@H]2C(=O)N[C@H](CO)c2cccc(Cl)c2F)c2ncccc12 ?
[A] middle band

[Q] And what about the molecule NC(=O)n1cc(NC(=O)N2[C@@H]3C[C@@H]3C[C@H]2C(=O)NCc2cccc(Cl)c2F)c2ccc(CC(=O)O)cc21 ?
[A] middle band

[Q] What about this molecule? NC(=O)n1cc(CC(=O)N2NCCC2C(=O)NCc2cccc(Cl)c2)c2ccccc21 (centres unmarked)
[A] low band

[Q] Record: CC(=O)c1nn(CC(=O)N2[C@@H]3C[C@@H]3C[C@H]2C(=O)Nc2cccc(C(F)(F)F)n2)c2cnccc12
[A] middle band

[Q] Further, for CC(=O)c1cn(CC(=O)N2[C@@H]3C[C@@H]3C[C@H]2C(=O)N[C@H](CN(C)C)c2cccc(Cl)c2F)c2ccccc12 ?
[A] middle band

[Q] And what about the molecule NC(=O)c1cn(CC(=O)N2C[C@H](F)C[C@H]2C(=O)NCc2cccc(Cl)c2F)c2cc(OCC(=O)O)ccc12 ?
[A] middle band

[Q] Would you mind doing C[C@@]12C[C@@H](C(=O)Nc3cccc(Br)n3)N(C(=O)Cn3nc(C(N)=O)c4ccccc43)[C@@H]1C2 as well?
[A] high band

[Q] Cool, now CCc1cc2c(C(N)=O)nn(CC(=O)N3C[C@H](F)[C@@H](OC)[C@H]3C(=O)NCc3cccc(Cl)c3F)c2cn1
[A] high band

[Q] Likewise for NC(=O)n1cc(NC(=O)N2C[C@@H](N)C[C@H]2C(=O)NC2CCOc3ccc(Cl)cc32)c2ccccc21 (some centres unmarked) ?
[A] low band

[Q] Moving on to the next molecule: NC(=O)n1cc(NC(=O)N2C[C@@H](N)C[C@H]2C(=O)NC2CCc3ccc(Cl)cc32)c2ccccc21 (some centres unmarked)
[A] low band
